Target: T1, 285bZIP K309A (human, UniProt P16220-1 285-339, C300S;C310S;C337S;K309A)
T1 sequence: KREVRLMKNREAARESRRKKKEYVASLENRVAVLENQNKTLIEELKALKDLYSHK
Experiment: stopped-flow fluorescence (koff/kon); 10 mM Mg2+; 10 mM MES pH 6.5, 150 mM NaCl, 10 mM MgCl2, 0.05% Tween-20, 25 C; NMR: 10 mM Tris-d11, 150 mM NaCl, 10 mM MgCl2, 1 mM NaN3, 5% D2O (NOE at 25 C)
Settings: protein: recombinant; tags: extra N-terminal Gly; chain copies: 2; label: 5' Alexa Fluor 488; hairpin (self-annealing, 11 bp stem, CCCC loop)
value-type: pKd
Answer as the number alone; pKd is minus log10 of concentration in mol/L.

Give the measured pKd for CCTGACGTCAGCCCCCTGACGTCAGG (structured_DNA) [AlexaFluor488-CREh]
8.67
